// data source = ChEMBL document CHEMBL1145498

Data export: ΔTm values recorded with Serine/threonine-protein kinase 26 (Homo sapiens).
VALUE KIND: ΔTm (°C)

                                   compound  unit_abbreviation  readout_number
0  CN(C)c1ccc(CC2C(=O)Nc3ccccc32)cc1 (centres undefined)                 °C             0.7
1  COc1cc2c(cc1OC)-c1n[nH]c(Nc3cccc(F)c3)c1C2                 °C             1.2
2  COc1ccc2c(c[n+](C)c3c4cc5c(cc4ccc23)OCO5)c1OC [CHELERYTHRINE CHLORIDE]                 °C              -1
3  Nc1n[nH]c2nnc(-c3c(-c4ccccc4)nn4ccccc34)cc12                 °C               1
4  Cn1cc(C2=C(c3cn(CCCSC(=N)N)c4ccccc34)C(=O)NC2=O)c2ccccc21                 °C             2.3
5  NC(=O)c1ccc(-c2nc(-c3ccc4c(c3)OCCO4)c(-c3ccccn3)[nH]2)cc1                 °C            -1.1
6           Nc1cc2ncnc(Nc3cccc(Br)c3)c2cc1N                 °C             3.6
7  CCOC(=O)c1c(C)[nH]c(/C=C2\C(=O)Nc3ccccc32)c1C                 °C             0.1
8  O=c1c2ccccc2[nH]c(=S)n1CCN1CCC(=C(c2ccc(F)cc2)c2ccc(F)cc2)CC1                 °C             2.4

----------
Parameter ΔTm: see the listing below.
Biological target: Serine/threonine-protein kinase 17A (Homo sapiens)
VALUE KIND: ΔTm (°C)

                                    compound  value_kind  readout_number
 0           CCN1/C(=C/C(C)=O)Sc2ccc(OC)cc21         ΔTm             0.4
 1  NCCNc1ncc(C(N)=O)c(Nc2cccc(C(F)(F)F)c2)n1         ΔTm             3.2
 2    COc1ccc(Cl)cc1NC(=O)Nc1cc(C)nc2ccccc12         ΔTm            -0.1
 3  CN(C)S(=O)(=O)c1ccc2c(c1)/C(=C/c1cc3c([nH]1)CCCC3)C(=O)N2         ΔTm             3.3
 4  C[S+]([O-])c1ccc(CSc2nc(-c3ccc(F)cc3)c(-c3ccncc3)[nH]2)cc1 (stereo not given)         ΔTm               0
 5  CCN(CC)CCNC(=O)c1c(C)[nH]c(/C=C2\C(=O)Nc3ccc(Cl)cc32)c1C         ΔTm              11
 6  O=C1C(Cl)=C(N2C(=O)CCC2=O)C(=O)c2ccccc21         ΔTm             0.5
 7  CN(C)CCCn1cc(C2=C(c3c[nH]c4ccccc34)C(=O)NC2=O)c2ccccc21         ΔTm             1.3
 8  COc1cc2ncnc(Nc3ccc(NC(=O)c4ccccc4)cc3)c2cc1OC         ΔTm             2.1
 9  N#C/C(=C1/Nc2ccccc2S1)c1ccnc(NCCc2cccnc2)n1         ΔTm             4.7
10  NC1=NC(=O)/C(=C2\CCNC(=O)c3[nH]c(Br)cc32)N1         ΔTm            14.8
11  CN(C)c1ccc(CC2C(=O)Nc3ccccc32)cc1 (stereo not given)         ΔTm             6.2
12  CN[C@@H]1CC2O[C@@](C)([C@@H]1OC)n1c3ccccc3c3c4c(c5c6ccccc6n2c5c31)C(=O)NC4         ΔTm            17.4
13         Oc1cc(O)cc(/C=C/c2ccc(O)c(O)c2)c1         ΔTm             0.3
14  COc1nccc(-c2c(-c3ccc(F)cc3)ncn2[C@H]2CC[C@H](O)CC2)n1         ΔTm               0
15          COc1cccc(-c2cc(=O)c3ccccc3o2)c1N         ΔTm             0.7
16  CN(c1cccnc1)c1cc2c(Nc3ccc(F)c(Cl)c3)c(C#N)cnc2cn1         ΔTm             4.7
17           Nc1cc2ncnc(Nc3cccc(Br)c3)c2cc1N         ΔTm             7.7
18  NC(=O)c1ccc(-c2nc(-c3ccc4c(c3)OCCO4)c(-c3ccccn3)[nH]2)cc1         ΔTm            -0.3
19  O=[N+]([O-])c1ccc(-c2nc(-c3ccc(F)cc3)c(-c3ccncc3)[nH]2)cc1         ΔTm             0.6

----------
Molecular target: Calcium/calmodulin-dependent protein kinase kinase 2 (Homo sapiens)
Sequence (Q96RR4 2-588 limits assumed): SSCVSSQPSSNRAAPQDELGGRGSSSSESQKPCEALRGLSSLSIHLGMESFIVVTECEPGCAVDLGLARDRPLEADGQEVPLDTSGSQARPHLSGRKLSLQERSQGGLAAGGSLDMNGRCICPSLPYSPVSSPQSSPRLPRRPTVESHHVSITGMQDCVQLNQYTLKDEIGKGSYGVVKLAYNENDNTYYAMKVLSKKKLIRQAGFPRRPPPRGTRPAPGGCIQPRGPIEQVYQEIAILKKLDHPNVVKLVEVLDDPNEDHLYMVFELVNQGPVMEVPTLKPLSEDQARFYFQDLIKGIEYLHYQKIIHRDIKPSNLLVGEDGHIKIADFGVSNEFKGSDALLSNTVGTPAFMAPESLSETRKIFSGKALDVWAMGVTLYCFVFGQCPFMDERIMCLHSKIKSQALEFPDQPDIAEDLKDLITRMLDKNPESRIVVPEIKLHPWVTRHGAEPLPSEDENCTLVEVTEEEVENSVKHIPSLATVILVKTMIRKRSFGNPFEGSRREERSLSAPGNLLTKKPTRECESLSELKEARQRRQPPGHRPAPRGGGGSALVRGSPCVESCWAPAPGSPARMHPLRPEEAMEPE
Tag: rule met if measured ΔTm is not below 1 °C, rule not met if it is.

>>> df
                                   compound  classification
0  CCOc1ccc(/C=C2/SC(=O)N(CCN)C2=O)cc1 [HIAZOLIDINEDIONE1]    rule not met
1  CN(c1cccnc1)c1cc2c(Nc3ccc(F)c(Cl)c3)c(C#N)cnc2cn1        rule met
2  O=C1NC(=O)C(c2cn(CCCn3ccnc3)c3ccccc23)=C1Nc1ccccc1        rule met
3  Nc1cccc(-c2cc3c(Oc4cccc(O)c4)ncnc3[nH]2)c1        rule met

----------
Biological target: Casein kinase I isoform gamma-1 (Homo sapiens)
VALUE KIND: ΔTm (°C)

                               input_smiles  readout_number
0  O=C1C=C2C(=Nc3c2c2c(c4c3=NC3=C4CCC=C3)C=NC=2)CC1             0.9
1          Cn1cnc2c(NCc3ccccc3)nc(NCCO)nc21             0.1
2  CCOc1cc(/C=C(\C#N)C(N)=O)cc(CSc2ccccc2)c1O             0.2
3  O=c1c(O)c(-c2ccc(O)c(O)c2)oc2cc(O)cc(O)c12             3.2
4  COc1cc2ncnc(Nc3ccc(NC(=O)c4ccccc4)cc3)c2cc1OC             1.1

----------
Molecular target: Serine/threonine-protein kinase 26 (Homo sapiens) (UniProt Q9P289)
Sequence (Q9P289 2-416 limits assumed): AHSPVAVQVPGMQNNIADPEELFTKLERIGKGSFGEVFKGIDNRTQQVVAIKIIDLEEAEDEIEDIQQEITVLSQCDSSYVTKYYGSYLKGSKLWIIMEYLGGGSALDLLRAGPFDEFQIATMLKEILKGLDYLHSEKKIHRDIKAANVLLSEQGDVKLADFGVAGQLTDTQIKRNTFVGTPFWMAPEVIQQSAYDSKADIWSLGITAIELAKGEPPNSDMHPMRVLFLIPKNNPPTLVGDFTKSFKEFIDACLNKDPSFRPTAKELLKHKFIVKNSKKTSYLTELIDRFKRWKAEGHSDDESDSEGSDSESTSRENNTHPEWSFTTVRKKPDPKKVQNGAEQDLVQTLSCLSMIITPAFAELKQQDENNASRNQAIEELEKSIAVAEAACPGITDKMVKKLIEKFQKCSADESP
Tag: YES if measured ΔTm is not below 0.8 °C, NO if it is.

                                   compound                       experimental_target  classification
0  O=C1NC(=O)c2c1c1c3ccccc3[nH]c1n1cncc21 [ISOGRANULATIMIDE]  Serine/threonine-protein kinase 26 (Homo sapiens) (UniProt Q9P289)             YES
1           O=C(O)c1cc(NCc2cc(O)ccc2O)ccc1O  Serine/threonine-protein kinase 26 (Homo sapiens) (UniProt Q9P289)              NO
2  CN(C)c1ccc(CC2C(=O)Nc3ccccc32)cc1 (stereo unspecified)  Serine/threonine-protein kinase 26 (Homo sapiens) (UniProt Q9P289)              NO
3  O=C1Nc2ccc(I)cc2/C1=C\c1cc(Br)c(O)c(Br)c1  Serine/threonine-protein kinase 26 (Homo sapiens) (UniProt Q9P289)             YES
4  COc1cc2c(cc1OC)-c1n[nH]c(Nc3cccc(F)c3)c1C2  Serine/threonine-protein kinase 26 (Homo sapiens) (UniProt Q9P289)              NO
5                   Nc1n[nH]c2nc3ccccc3nc12  Serine/threonine-protein kinase 26 (Homo sapiens) (UniProt Q9P289)              NO
6  Nc1nc(Nc2ccc(S(N)(=O)=O)cc2)nn1C(=S)Nc1c(F)cccc1F  Serine/threonine-protein kinase 26 (Homo sapiens) (UniProt Q9P289)             YES
7  COc1ccc(CNC(=O)Nc2ncc([N+](=O)[O-])s2)cc1  Serine/threonine-protein kinase 26 (Homo sapiens) (UniProt Q9P289)             YES
8  CC(C)(C)n1nc(-c2cccc3ccccc23)c2c(N)ncnc21  Serine/threonine-protein kinase 26 (Homo sapiens) (UniProt Q9P289)             YES
9  COc1cc(O)c2c(c1)oc(=O)c1c3cc(O)c(O)cc3oc21  Serine/threonine-protein kinase 26 (Homo sapiens) (UniProt Q9P289)             YES

----------
Molecular target: Tyrosine-protein kinase Lck (Homo sapiens)
Sequence (P06239 whole entry): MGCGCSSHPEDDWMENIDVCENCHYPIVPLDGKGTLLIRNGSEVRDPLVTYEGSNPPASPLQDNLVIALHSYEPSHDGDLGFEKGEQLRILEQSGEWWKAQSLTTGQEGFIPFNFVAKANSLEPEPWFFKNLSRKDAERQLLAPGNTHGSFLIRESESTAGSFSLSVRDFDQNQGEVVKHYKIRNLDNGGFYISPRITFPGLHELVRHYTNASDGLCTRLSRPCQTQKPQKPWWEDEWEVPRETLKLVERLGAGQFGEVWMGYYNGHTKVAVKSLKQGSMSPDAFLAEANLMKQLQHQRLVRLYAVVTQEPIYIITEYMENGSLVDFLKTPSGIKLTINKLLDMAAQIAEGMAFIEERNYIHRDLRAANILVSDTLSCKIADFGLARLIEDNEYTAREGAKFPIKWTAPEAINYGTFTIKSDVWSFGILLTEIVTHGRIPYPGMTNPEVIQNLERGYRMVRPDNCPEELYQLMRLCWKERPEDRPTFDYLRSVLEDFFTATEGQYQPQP
VALUE KIND: IC50 (nM)

In [3]: df
Out[3]:
                               input_smiles  unit_abbreviation  readout_number
0  O=C(Nc1cccc(Nc2nccc(Nc3cccc(C(F)(F)F)c3)n2)c1)C1CC1                 nM             131
